assay: Half life in rat whole blood at 5 uM; format: ADME
REPORTED_METRIC: half-life at 5 µM (min)
// units = min; emit number, no label

Exam item: I have this compound here, "C=C1C(=O)O[C@H]2c3c(C)c(OCc4ccccc4Br)cc(C)c3CC[C@@H]12" , and I need its recorded half-life at 5 µM.
Marked response: 39.8

---

test: Volume of distribution at steady state in Sprague-Dawley rat at 1 mg/kg, iv by LC-MS/MS analysis; format: ADME, organism-based; settings: in vivo, read-out: Vdss
REPORTED_METRIC: Vd (L/kg)
Kindly answer with a numeric value in L/kg, unit omitted.

Exam item: Any idea what Vd was measured for "C=C1C(=O)O[C@H]2c3c(C)c(OCc4ccccc4Br)cc(C)c3CC[C@@H]12" ?
Marked response: 6.26
